- system.name: human enzyme NAMPT (full length) (Homo sapiens)
- Construct: human enzyme NAMPT (full length)
- protocol.details: NMN fluorescence biochemical assay (stimulation of NMN synthesis by NAMPT)
- test.context: fold change of maximal activation compared to DMSO
measured.property: Enzymatic Emax

Below are worked cases with known answers.
compound | Enzymatic Emax
COc1cccc2c1C(=O)N(CC1CC3(CNC(=O)O3)C1)C2Cc1c(Cl)cnn1C (centres unmarked) | B (3≥B>2)
CC1c2cc(Cc3ccccc3)ccc2C(=O)N1Cc1ccc2[nH]c(=O)oc2c1 (centres unmarked) | B (3≥B>2)
Cc1ccnc(Cl)c1CC1c2ccccc2C(=O)N1Cc1ccc2[nH]c(=O)oc2c1 (centres unmarked) | A (A>3)
CC1c2cc(CN3CC4(COC4)C3)ccc2C(=O)N1Cc1ccc2[nH]c(=O)oc2c1 (single isomer, unassigned) | B (3≥B>2)

What Enzymatic Emax value was documented for this compound, Cc1cccc2c1C(=O)N(CC1CC3(CNC(=O)O3)C1)C2Cc1c(Cl)cnn1C (centres unmarked) ? B (3≥B>2)

Proceed to COc1ccc(CN2C(=O)c3ccccc3C2Cc2c(Cl)cnn2C)cc1 (centres unmarked) B (3≥B>2)

Next entry: Cn1cc(Cl)c(CC2c3ccccc3C(=O)N2Cc2ccc3[nH]c(=O)oc3c2)n1 (centres unmarked) A (A>3)

Repeat for the following compound: O=C1c2ccccc2C(Cc2ncccc2Br)N1Cc1cnc2[nH]c(=O)oc2c1 (centres unmarked) B (3≥B>2)

====

- system.name: human enzyme NAMPT (full length) (Homo sapiens)
- Construct: human enzyme NAMPT (full length)
- protocol.details: NMN fluorescence biochemical assay (stimulation of NMN synthesis by NAMPT)
- test.context: fold change of maximal activation compared to DMSO
- Description: Certain compounds described herein were assayed for their ability to stimulate the synthesis of nicotinamide mononucleotide (NMN) by human enzyme NAMPT (full length). […] Fluorescence (Ex/Em=382/445 nm) was measured using an Envision plate reader. The potency measurements for the test compounds were quantified and represented as EC50 (concentration of a compound that gives half-maximal activation) and Emax (fold change of a compound's maximal activation compared to DMSO).
measured.property: Enzymatic Emax

Please review the following examples before continuing.
molecule | Enzymatic Emax
COc1ccc(CN2C(=O)c3ccccc3C2Cc2c(C)ccnc2C#N)cn1 (stereo not drawn) [Compound 588] | B (3≥B>2)
COc1ccc(CN2C(Cc3c(Cl)cnn3C)c3ccccc3S2(=O)=O)cn1 (stereo not drawn) [Compound 642] | B (3≥B>2)
Cn1ncc(Cl)c1CC1c2ccccc2C(=O)N1Cc1ccc2[nH]nnc2c1 (stereo not drawn) [Compound 279] | B (3≥B>2)
O=c1[nH]c2ccc(CN3Cc4ccccc4S3(=O)=O)cc2o1 [Compound 9] | B (3≥B>2)
Cc1n[nH]cc1/C=C(/F)CN1C(=O)c2ccccc2C1Cc1c(Cl)cnn1C (stereo not drawn) [Compound 504] | B (3≥B>2)
O=C1c2ccccc2C(Cc2ncccc2Br)N1Cc1cc2oc(=O)[nH]c2cc1F (stereo not drawn) [Compound 223] | A (A>3)
Cc1ccc2c(c1)C(=O)N(Cc1ccc3[nH]nnc3c1)C2=O [Compound 37] | A (A>3)
Cn1ncc(Cl)c1CC1c2ccccc2C(=O)N1Cc1cn[nH]c1 (stereo not drawn) [Compound 629] | B (3≥B>2)

# ---- query molecule ----
What value of measured Enzymatic Emax is listed for COc1ccc(CN2C(=O)c3ccccc3C2Cc2c(C)ccnc2C#N)cc1 (stereo not drawn) [Compound 567] ? B (3≥B>2)

====

Entries annotated with measured EC50
- Test system: endogenous NAMPT in U2OS cells
- protocol.details: Cellular NAD+ modulation assay (NAD/NADH-Glo, U2OS cells)
- Format: cell-based
- test.context: Homo sapiens, 24 hours incubation, cellular NAD+

Reference set, count: 3
compound | EC50
Cn1ncc(Cl)c1CC1c2cc(F)ccc2C(=O)N1CC1CC2(CNC(=O)O2)C1 (centres unmarked) | < 500 nM
CN1C[C@]2(C[C@H](CN3C(=O)c4ccccc4[C@@H]3Cc3c(Cl)cnn3C)C2)OC1=O | < 500 nM
Cc1ccnc(C#N)c1CC1c2cccc(F)c2C(=O)N1CC1CC2(CNC(=O)O2)C1 (centres unmarked) | < 500 nM

For the compound shown here, Cn1ncc(Cl)c1CC1c2ccc(F)cc2C(=O)N1Cc1ccc2[nH]nnc2c1 (centres unmarked) , give the reported EC50. < 500 nM

Please do the same for Cc1nc(O)sc1CN1C(=O)c2ccccc2C1Cc1c(Cl)cnn1C (centres unmarked) as well. 500 to 5000 nM

Please do the same for COc1ccc(CN2C(=O)c3ccc(C4CC4)cc3C2Cc2c(C)ncnc2C#N)cn1 (centres unmarked) as well. 500 to 5000 nM

====

Below, each of the compounds is paired with its reported EC50 value.
- system.name: human enzyme NAMPT (full length) (Homo sapiens)
- Construct: human enzyme NAMPT (full length)
- protocol.details: NMN fluorescence biochemical assay (stimulation of NMN synthesis by NAMPT)
- test.context: NMN synthesis by purified human NAMPT (100 nM); concentration giving half-maximal activation; read-out: Enzymatic EC50

Worked cases, EC50 given:
compound | measured.property | observed.result
Cc1ccc(C#N)c(CC2c3ccccc3C(=O)N2Cc2ccc3[nH]c(=O)oc3c2)c1 (centres unmarked) | EC50 | < 0.5 µM
O=C1c2ccccc2CN1Cc1ccc(O)cc1 [Compound 12, 2-(4-hydroxybenzyl)isoindolin-1-one] | EC50 | ≥ 5 µM
O=C1c2ccccc2C(Cc2ncccc2Cl)N1Cc1ccc2[nH]c(=O)oc2c1 (centres unmarked) | EC50 | < 0.5 µM
O=C1COc2ccccc2N1Cc1ccc(O)cc1 | EC50 | ≥ 5 µM
O=C1c2ccccc2C(=O)N1Cc1ccc(O)cc1 [Compound 11, 2-(4-hydroxybenzyl)isoindoline-1,3-dione] | EC50 | ≥ 5 µM
COC1CN(Cc2ccc3c(c2)[C@H](C)N(Cc2ccc4[nH]c(=O)oc4c2)C3=O)C1 (single isomer, unassigned) | EC50 | ≥ 5 µM
N#Cc1cccc(Br)c1CC1c2ccccc2C(=O)N1Cc1ccc2[nH]c(=O)oc2c1 (centres unmarked) | EC50 | < 0.5 µM
O=C1c2ccccc2C(CC2CCCC2)N1Cc1ccc2[nH]c(=O)oc2c1 (centres unmarked) | EC50 | 0.5 to 5 µM

Reported EC50, compound CNC(=O)Nc1ccc(CN2Cc3ccccc3C2=O)cc1 : ____ ≥ 5 µM

Another: O=C1c2ccccc2C(Cc2ncccc2Br)N1Cc1cnc2[nH]c(=O)oc2c1 (centres unmarked) ≥ 5 µM

Next record, please: O=C1c2ccccc2C(Cc2ncccc2Br)N1Cc1ccc2[nH]ncc2c1 (centres unmarked) < 0.5 µM

Field entry: O=C1c2ccccc2C(Cc2ncccc2C(F)F)N1Cc1ccc2[nH]c(=O)oc2c1 (centres unmarked) 0.5 to 5 µM

CC(C)c1ccc2c(c1)C(=O)N(Cc1ccc(O)cc1)C2=O , same question. 0.5 to 5 µM

Entry to check: Cc1ccc2c(c1)C(=O)N(Cc1ccc3[nH]nnc3c1)C2=O ≥ 5 µM

====

- system.name: human enzyme NAMPT (full length) (Homo sapiens, UniProt P43490)
- Construct: human enzyme NAMPT (full length)
- Sequence (P43490 whole entry): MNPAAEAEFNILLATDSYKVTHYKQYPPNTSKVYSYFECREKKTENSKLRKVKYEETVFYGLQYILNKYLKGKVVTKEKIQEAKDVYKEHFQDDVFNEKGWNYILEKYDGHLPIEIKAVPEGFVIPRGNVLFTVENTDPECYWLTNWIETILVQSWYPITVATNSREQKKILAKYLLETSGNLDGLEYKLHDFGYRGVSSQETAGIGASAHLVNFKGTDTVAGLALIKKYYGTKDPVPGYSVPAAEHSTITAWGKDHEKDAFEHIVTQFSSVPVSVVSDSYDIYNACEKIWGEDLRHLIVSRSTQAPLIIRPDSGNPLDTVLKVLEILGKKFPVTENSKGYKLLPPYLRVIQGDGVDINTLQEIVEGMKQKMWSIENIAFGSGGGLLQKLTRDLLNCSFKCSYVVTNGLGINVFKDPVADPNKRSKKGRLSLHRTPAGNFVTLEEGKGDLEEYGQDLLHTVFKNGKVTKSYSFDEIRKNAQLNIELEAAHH
- protocol.details: NMN fluorescence biochemical assay (stimulation of NMN synthesis by NAMPT)
- test.context: fold change of maximal activation compared to DMSO
measured.property: Enzymatic Emax

compound | observed.result
Cn1ncc(Cl)c1CC1c2cccc(Br)c2C(=O)N1CC1CC2(CNC(=O)O2)C1 (stereo not shown) | B (3≥B>2)
Cc1nc(O)sc1CN1C(=O)c2ccccc2C1Cc1c(Cl)cnn1C (stereo not shown) | B (3≥B>2)

====

- system.name: human enzyme NAMPT (full length) (Homo sapiens, UniProt P43490)
- Construct: human enzyme NAMPT (full length)
- protocol.details: NMN fluorescence biochemical assay (stimulation of NMN synthesis by NAMPT)
- test.context: fold change of maximal activation compared to DMSO
measured.property: Enzymatic Emax

molecule | measured.property | observed.result
Cn1ncc(Cl)c1CC1c2cc(CC3COC3)ccc2C(=O)N1Cc1ccc2[nH]nnc2c1 (centres unmarked) | Enzymatic Emax | B (3≥B>2)
CN1CC(c2nn(C)c(CC3c4ccccc4C(=O)N3CC3CC4(CNC(=O)O4)C3)c2Cl)C1 (centres unmarked) | Enzymatic Emax | A (A>3)
Cn1ncc(Cl)c1CC1c2ccccc2C(=O)N1CC1CC(C(N)=O)C1 (centres unmarked) | Enzymatic Emax | B (3≥B>2)
N#Cc1nc2cc(CN3C(=O)c4ccccc4C3Cc3ncccc3Br)ccc2[nH]1 (centres unmarked) | Enzymatic Emax | C (2≥C)

Query molecule follows.
Endpoint output: Enzymatic Emax of Cc1nc2cc(CN3C(=O)c4ccccc4C3Cc3ncccc3Br)ccc2[nH]1 (centres unmarked) . Value? A (A>3)

====

- system.name: human enzyme NAMPT (full length) (Homo sapiens)
- Construct: human enzyme NAMPT (full length)
- protocol.details: NMN fluorescence biochemical assay (stimulation of NMN synthesis by NAMPT)
- test.context: NMN fluorescence assay, purified human NAMPT 100 nM; concentration giving half-maximal activation; read-out: Enzymatic EC50
measured.property: EC50

compound | measured.property | observed.result
Cn1ncc(Cl)c1CC1c2cc(CN3CCOCC3)ccc2C(=O)N1Cc1ccc2[nH]nnc2c1 (centres unmarked) | EC50 | < 500 nM

I have this compound here, Cc1ncnc(C#N)c1CC1c2ccccc2C(=O)N1Cc1ccc2[nH]nnc2c1 (centres unmarked) , and I need its recorded EC50. < 500 nM

Field entry: Cn1ncc(Cl)c1CC1c2ccccc2C(=O)N1C/C(F)=C/c1nn[nH]c1F (centres unmarked) 500 to 5000 nM

Next record, please: Cn1ncc(Cl)c1CC1c2ccccc2C(=O)N1Cc1c[nH]c(=O)s1 (centres unmarked) < 500 nM

Same question for Cn1ncc(Cl)c1CC1c2ccccc2C(=O)N1Cc1ccccc1 (centres unmarked) please. ≥ 5000 nM

# credit: patent US20260078130A1
